- test: First in human single ascending dose and food effect PK study of JOTROL, plasma
- test_settings: both, human, plasma, oral, Mean AUC0-t, range over doses, resveratrol in plasma; JOTROL 200 to 700 mg, fasting

| chemical_smiles | AUC(0-t) |
| --- | --- |
| Oc1ccc(/C=C/c2cc(O)cc(O)c2)cc1 | 149 to 886 ng·h/mL |

----------
- test: First in human PK study of JOTROL, urine excretion
- Format: in vivo
- test_settings: human, urine, oral, resveratrol after JOTROL 200 to 700 mg; read-out: Renal clearance, range over treatments

| compound | CL renal |
| --- | --- |
| Oc1ccc(/C=C/c2cc(O)cc(O)c2)cc1 [Resveratrol, 3,5,4′-stilbenotriol] | 2.33 to 4.17 mL/min |

----------
- test: First in human single ascending dose and food effect PK study of JOTROL, plasma
- test_settings: both, human, plasma, po, 500 mg, T1/2 el, resveratrol in plasma, mean; Treatment D: JOTROL 500 mg single oral dose, fed (high-fat meal)

| compound | value_units | half-life |
| --- | --- | --- |
| Oc1ccc(/C=C/c2cc(O)cc(O)c2)cc1 [Resveratrol, 3,5,4′-stilbenotriol] | h | 1.71 |

----------
- test: First in human single ascending dose and food effect PK study of JOTROL, plasma
- test_settings: both, human, plasma, po, 200 mg, Kel, resveratrol in plasma, mean; Treatment A: JOTROL 200 mg single oral dose, fasting

| chemical_smiles | k el [s⁻¹] |
| --- | --- |
| Oc1ccc(/C=C/c2cc(O)cc(O)c2)cc1 | 0.000153 |

----------
- test: First in human single ascending dose and food effect PK study of JOTROL, plasma
- test_settings: both, human, plasma, po, 500 mg, Kel, resveratrol in plasma, mean; Treatment B: JOTROL 500 mg single oral dose, fasting

| chemical_smiles | k el |
| --- | --- |
| Oc1ccc(/C=C/c2cc(O)cc(O)c2)cc1 | 9.22e-05 s⁻¹ |

Reference source for all entries: paper PMC9243782
